# Tested on: PXR:RXRa (NR concentration 270 nM, RXRa partner concentration 90 nM)
# PROCEDURE DETAILS: PBM binding z-score (relative to random genomic background probes); higher = stronger binding; sequences stand for … in GC…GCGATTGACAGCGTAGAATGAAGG
Class key for PBM binding z-score values: lo: < 0.7; med: ≥ 0.7 and < 2; hi: ≥ 2

INPUT SEQUENCE: ACTAGCAGGCTAAGGGTCACTCAAGATTAGTCCG
TARGET OR TEST SYSTEM: PXR:RXRa (NR concentration 270 nM, RXRa partner concentration 90 nM)
DISCRETE LABEL: hi
//
INPUT SEQUENCE: TCTTGTAGATCAACAGAAGGTTAAGAAAGATCGA
TARGET OR TEST SYSTEM: PXR:RXRa (NR concentration 270 nM, RXRa partner concentration 90 nM)
DISCRETE LABEL: med
//
INPUT SEQUENCE: CCTATTAGTTGACCATAAGGGCAACTGAAGCTCG
TARGET OR TEST SYSTEM: PXR:RXRa (NR concentration 270 nM, RXRa partner concentration 90 nM)
DISCRETE LABEL: med
//
INPUT SEQUENCE: CAAACTAGGTCACTGAGGTCAAAGTCCGTGCGTA
TARGET OR TEST SYSTEM: PXR:RXRa (NR concentration 270 nM, RXRa partner concentration 90 nM)
DISCRETE LABEL: hi
//
INPUT SEQUENCE: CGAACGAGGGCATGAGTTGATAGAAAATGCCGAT
TARGET OR TEST SYSTEM: PXR:RXRa (NR concentration 270 nM, RXRa partner concentration 90 nM)
DISCRETE LABEL: lo

Just checking, what class would you give `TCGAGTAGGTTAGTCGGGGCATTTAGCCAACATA` here?
lo

Just checking, what class would you give `CAAACCAGGTCACCGGAAGGTCAAAGTCCGCATG` here?
hi

Just checking, what class would you give `ACTGTTAGTTGACTTAGGGCAACCGATACGACGC` here?
lo
